# IC50 per record follows
system: B-Raf V600E (Homo sapiens, UniProt P15056, V600E)
Sequence (P15056 whole entry V600E): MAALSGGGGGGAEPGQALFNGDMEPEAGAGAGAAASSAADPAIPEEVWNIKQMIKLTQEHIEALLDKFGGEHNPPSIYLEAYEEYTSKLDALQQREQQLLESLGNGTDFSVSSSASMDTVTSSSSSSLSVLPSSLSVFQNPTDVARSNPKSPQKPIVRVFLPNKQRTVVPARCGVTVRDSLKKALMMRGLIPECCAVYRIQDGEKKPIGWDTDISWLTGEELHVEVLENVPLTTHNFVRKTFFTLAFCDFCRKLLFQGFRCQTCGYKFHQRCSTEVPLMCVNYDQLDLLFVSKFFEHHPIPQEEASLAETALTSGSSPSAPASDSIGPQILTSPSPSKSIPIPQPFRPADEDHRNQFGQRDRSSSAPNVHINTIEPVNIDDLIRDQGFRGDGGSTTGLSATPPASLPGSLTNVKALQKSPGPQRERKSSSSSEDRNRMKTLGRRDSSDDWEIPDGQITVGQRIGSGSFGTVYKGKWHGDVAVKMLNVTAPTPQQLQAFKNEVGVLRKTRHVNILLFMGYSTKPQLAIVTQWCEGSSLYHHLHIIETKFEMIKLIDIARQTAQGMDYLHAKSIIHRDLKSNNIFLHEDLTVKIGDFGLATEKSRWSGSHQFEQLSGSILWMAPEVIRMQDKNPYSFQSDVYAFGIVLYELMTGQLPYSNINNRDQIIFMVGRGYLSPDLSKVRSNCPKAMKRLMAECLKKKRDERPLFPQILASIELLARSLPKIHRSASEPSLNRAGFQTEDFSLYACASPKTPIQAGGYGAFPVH
procedure-details: B-Raf V600E kinase activity assay (AlphaScreen, biotin-MEK1 substrate)
test-parameters: 100 μM ATP, 100 nM biotin-MEK1, 45 minutes at room temperature, read-out: Biochemical activity (IC50 μM) V600E

CCCS(=O)(=O)Nc1ccc(F)c(C(=O)c2c[nH]c3ncc(-c4ccc(S(N)(=O)=O)s4)cc23)c1F
< 0.1 µM
CCCS(=O)(=O)Nc1ccc(F)c(C(=O)c2c[nH]c3ncc(-c4cnc(-n5ccnc5)cn4)cc23)c1F
< 0.1 µM
CCCS(=O)(=O)Nc1ccc(F)c(C(=O)c2c[nH]c3ncc(-c4ccc5[nH]ccc5c4)cc23)c1F
< 0.1 µM
CCCS(=O)(=O)Nc1ccc(F)c(C(=O)c2c[nH]c3ncc(-c4cnn(C5CCNCC5)c4)cc23)c1F
< 0.1 µM
COc1ccc(-c2cnc3[nH]cc(C(=O)c4c(F)ccc(NS(=O)(=O)c5cc(F)ccc5F)c4F)c3c2)c(OC)n1
< 0.1 µM
CCCS(=O)(=O)Nc1ccc(F)c(C(=O)c2c[nH]c3ncc(-c4ccc5[nH]ncc5c4)cc23)c1F
< 0.1 µM
CCCS(=O)(=O)Nc1ccc(F)c(C(=O)c2c[nH]c3ncc(-c4cnc(-n5ccccc5=O)cn4)cc23)c1F
< 0.1 µM
CONC(=O)c1cccc(-c2cnc3[nH]cc(C(=O)c4c(F)ccc(NS(=O)(=O)c5cc(F)ccc5F)c4F)c3c2)c1
< 0.1 µM
CS(=O)(=O)c1cncc(-c2cnc3[nH]cc(C(=O)c4c(F)ccc(NS(=O)(=O)c5cc(F)ccc5F)c4F)c3c2)c1
< 0.1 µM
CCCS(=O)(=O)Nc1ccc(F)c(C(=O)c2c[nH]c3ncc(-c4ccc5cncnc5c4)cc23)c1F
< 0.1 µM

Item: `CCCS(=O)(=O)Nc1ccc(F)c(C(=O)c2c[nH]c3ncc(-c4ccc5cn(C)nc5c4)cc23)c1F` | IC50: < 0.1 µM

Quick note, IC50 for `CC(=O)N(c1ccc(F)c(C(=O)c2cn(C(C)=O)c3ncc(-c4ccc5c(cnn5C(C)=O)c4)cc23)c1F)S(=O)(=O)c1cc(F)ccc1F` landed at < 0.1 µM

Per the record, `CCCS(=O)(=O)Nc1ccc(F)c(C(=O)c2c[nH]c3ncc(-c4ccc5nccnc5c4)cc23)c1F` has IC50 of < 0.1 µM

`CCCS(=O)(=O)Nc1ccc(F)c(C(=O)c2c[nH]c3ncc(-c4cn5ccccc5n4)cc23)c1F` yielded IC50 of < 0.1 µM

What the record says about `Cc1ccc(-c2cnc3[nH]cc(C(=O)c4c(F)ccc(NS(=O)(=O)c5cc(F)ccc5F)c4F)c3c2)cn1` : IC50 is < 0.1 µM
